Molecular target: human SGLT2 (Homo sapiens, UniProt P31639)
Sequence (P31639 whole entry): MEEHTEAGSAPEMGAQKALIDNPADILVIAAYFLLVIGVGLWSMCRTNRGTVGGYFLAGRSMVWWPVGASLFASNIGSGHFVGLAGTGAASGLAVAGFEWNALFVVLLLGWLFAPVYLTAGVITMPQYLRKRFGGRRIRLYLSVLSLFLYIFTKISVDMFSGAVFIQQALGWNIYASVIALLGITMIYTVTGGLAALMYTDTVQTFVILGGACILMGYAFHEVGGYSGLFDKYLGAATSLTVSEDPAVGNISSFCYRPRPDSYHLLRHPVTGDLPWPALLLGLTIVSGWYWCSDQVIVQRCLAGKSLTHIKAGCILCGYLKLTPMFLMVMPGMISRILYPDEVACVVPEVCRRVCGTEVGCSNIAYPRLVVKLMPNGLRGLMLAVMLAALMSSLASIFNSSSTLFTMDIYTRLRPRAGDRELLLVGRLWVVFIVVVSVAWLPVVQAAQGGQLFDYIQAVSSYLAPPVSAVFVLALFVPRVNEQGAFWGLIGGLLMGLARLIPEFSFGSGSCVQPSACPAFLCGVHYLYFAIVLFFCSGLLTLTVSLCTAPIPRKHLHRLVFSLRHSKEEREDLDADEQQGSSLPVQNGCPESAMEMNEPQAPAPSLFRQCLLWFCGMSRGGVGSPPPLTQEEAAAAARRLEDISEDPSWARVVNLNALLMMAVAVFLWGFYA
Assay: Inhibition of sodium-dependent D-glucose transport, [14C]AMG-uptake
Settings: hSGLT2; apparent inhibitory constant, Dixon plot
Below, each of the compounds is paired with its reported pKi value.
Would you please state pKi, meaning minus log10 of the concentration in mol/L, as a bare number?

Compound: Cc1ccc(S[C@@H]2O[C@H](CO)[C@@H](O)[C@H](O)[C@H]2O)cc1 [Thioglucoside 7, p-Tolyl-1'-thio-β-D-glucopyranoside]
pKi: 3.76
--
Compound: Cc1cccc(S[C@@H]2O[C@H](CO)[C@@H](O)[C@H](O)[C@H]2O)c1 [Thioglucoside 8, m-Tolyl-1'-thio-β-D-glucopyranoside]
pKi: 7.70
--
Compound: OCc1ccccc1S[C@@H]1O[C@H](CO)[C@H](O)[C@H](O)[C@H]1O [Thioglucoside 6]
pKi: 8.00
--
Compound: OCc1ccccc1S[C@@H]1O[C@H](CO)[C@@H](O)[C@H](O)[C@H]1O [Thioglucoside 2]
pKi: 8.00

Could you now look at the following compound, please?
Which pKi reading was recorded for the compound OCc1cccc(S[C@@H]2O[C@H](CO)[C@@H](O)[C@H](O)[C@H]2O)c1 [Thioglucoside 5] ?
7.70
